Reported interaction score values for a set of binders
testedTarget: T1, P7A-bA
T1 chain: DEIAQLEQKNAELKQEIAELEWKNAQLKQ
assay: two-hybrid library CCNG1;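 also: natural log of median RNA to DNA barcode read ratio; higher means stronger binding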

binder | interaction score
DKIAQLKQKIAELKQENAELEWENAQLEQ [P4A-bA] | -1.25
DENAQLEQEIAELEQEIAELEWKNAQLKQ [P11A-bA] | -1.28
DENAQLEQKIAELKQKNAELKWEIAQLEQ [P5A-bA] | -1.32
DKNAQLKQEIAELEQENAELEWKIAQLKQ [P6A-bA] | 0.285
DEIAQLEQKNAELKQEIAELEWKNAQLKQ [P7A-bA] | -0.889
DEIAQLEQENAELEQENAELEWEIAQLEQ [P1A-bA] | -0.804

Okay, next one:
In: Please report the measured interaction score for DKIAQLKQKNAELKQKNAELKWKIAQLKQ [P2A-bA]
Out: -0.916
